# experimental-target: T1, recombinant human PD-L1 expressed with a C-terminal myc-myc-hexahistidine tag (hPD-L1-MMH) (human)
# T1 construct: Monomeric PD-L1 reagent; also called hPD-L1-MMH Monomer
# T1 sequence (chain, as listed by the source limits assumed): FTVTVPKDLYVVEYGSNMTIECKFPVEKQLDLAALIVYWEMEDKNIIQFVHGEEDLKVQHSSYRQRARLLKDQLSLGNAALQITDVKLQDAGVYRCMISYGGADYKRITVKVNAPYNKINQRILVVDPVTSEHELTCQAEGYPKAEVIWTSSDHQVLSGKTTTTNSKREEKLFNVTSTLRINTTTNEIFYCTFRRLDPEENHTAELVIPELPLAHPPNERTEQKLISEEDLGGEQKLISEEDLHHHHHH
# test-details: SPR, captured mAb, 25 C
reported-endpoint: koff (s⁻¹)
Please state the figure in s⁻¹; there is no need to write the unit.

Need koff, item H2aM8317N (antibody, mouse IgG2, V domains shown, also called H2M8317N) VH: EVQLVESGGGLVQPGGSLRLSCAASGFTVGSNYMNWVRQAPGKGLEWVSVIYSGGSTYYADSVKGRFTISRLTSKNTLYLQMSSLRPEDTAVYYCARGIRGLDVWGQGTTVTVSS VL: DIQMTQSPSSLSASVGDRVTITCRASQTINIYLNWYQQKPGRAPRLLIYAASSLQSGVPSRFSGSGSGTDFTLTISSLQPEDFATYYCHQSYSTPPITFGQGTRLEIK
0.0395

Need koff, item H2aM8321N (antibody, mouse IgG2, V domains shown, also called H2M8321N) VH: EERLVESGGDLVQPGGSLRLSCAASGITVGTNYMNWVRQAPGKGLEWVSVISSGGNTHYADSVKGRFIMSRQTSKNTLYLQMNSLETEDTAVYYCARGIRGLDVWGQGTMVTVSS VL: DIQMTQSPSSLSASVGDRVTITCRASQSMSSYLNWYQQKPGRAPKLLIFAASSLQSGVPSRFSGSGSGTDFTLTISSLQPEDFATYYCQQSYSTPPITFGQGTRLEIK
0.00359
